B1: NR2F2 (parent)
chain: NIPFFPDLQITDQVALLRLTWSEL

- Variants of: B1
- Assay Procedure: protein stability index of a GFP-peptide fusion (GPS, HEK-293T) (PSI 1-6); higher = more stable;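 further: lentivirally expressed fusions sorted by FACS into six bins by GFP to DsRed ratio, PSI derived from sequencing read proportions per bin multiplied by bin number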
- Condition Summary: c terminus: a fixed tail appended
Task for the reader: assign each of the following variants its reported protein stability index.
Give your answer as a number; write no unit.

Sample Q13M — what was its protein stability index?
4.27

Note, next up: E23C
3.21

And Q9Y ?
2.88

For T20W then?
2.46

Repeat for the following variant: A15G
1.19

Could you do the same for L17P , please?
2.37

Entry Q13N please
1.97

What about L24W ?
2.55
